- Tested on: trypomastigote forms of Trypanosoma cruzi (Y strain)
- experiment.description: Trypanocidal assay, bloodstream trypomastigotes, 5% of blood at 4 °C
- Assay type: cell-based
- condition.summary: 24 h, concentration giving 50% lysis of the parasites, mean ± SD of at least three experiments
- Experimental: 5% of blood at 4 °C: For all the experiments, stock solutions of the compounds were prepared in dimethyl sulfoxide, with the final concentration of the solvent never exceeding 0.5%, concentration known to exert no toxicity to the parasite or host cells. […] At least three independent experiments were performed, and the mean and standard deviation were calculated. […]
pIC50: −log10 of the molar value.

>  <mol>
Cc1ccc(C2=CC(=O)C=C(c3ccc(C)cc3)C2=O)cc1

>  <qual>
=

>  <pIC50>
3.63

$$$$
>  <mol>
O=C1C=C(c2ccccc2)C(=O)c2ccccc21

>  <qual>
=

>  <pIC50>
4.60

$$$$
>  <mol>
COc1ccc(C2=CC(=O)c3ccccc3C2=O)cc1

>  <qual>
=

>  <pIC50>
4.32

$$$$
>  <mol>
Cc1cccc(C2=CC(=O)c3ccccc3C2=O)c1

>  <qual>
=

>  <pIC50>
4.42

$$$$
>  <mol>
O=C1C=C(c2ccccc2)C(=O)c2c(O)cccc21

>  <qual>
=

>  <pIC50>
4.86

$$$$
>  <mol>
O=C1C(c2ccccc2)=CC(=O)c2c(O)cccc21

>  <qual>
=

>  <pIC50>
4.90

$$$$
>  <mol>
COc1cccc(C2=CC(=O)c3ccccc3C2=O)c1

>  <qual>
=

>  <pIC50>
4.51

$$$$
>  <mol>
Cc1cc(C)cc(C2=CC(=O)c3cc4ccccc4cc3C2=O)c1

>  <qual>
<

>  <pIC50>
3.60

$$$$
>  <mol>
COC(=O)c1ccc(C2=CC(=O)c3ccccc3C2=O)cc1

>  <qual>
=

>  <pIC50>
4.34

$$$$
>  <mol>
O=C1C=C(c2ccc(C(F)(F)F)cc2)C(=O)c2ccccc21

>  <qual>
=

>  <pIC50>
4.51

$$$$
>  <mol>
Cc1cc(C)cc(C2=CC(=O)c3ccccc3C2=O)c1

>  <qual>
=

>  <pIC50>
3.66

$$$$
>  <mol>
Cc1ccc(C2=CC(=O)c3c(O)cccc3C2=O)cc1

>  <qual>
=

>  <pIC50>
4.84

$$$$
>  <mol>
O=C1C=C(c2ccccc2)C(=O)c2cc3ccccc3cc21

>  <qual>
<

>  <pIC50>
3.60

$$$$
>  <mol>
Cc1cc([N+](=O)[O-])ccc1C1=CC(=O)c2ccccc2C1=O

>  <qual>
=

>  <pIC50>
4.40

$$$$
>  <mol>
COc1cc2c(cc1OC)C(=O)C(c1ccc(C)cc1)=CC2=O

>  <qual>
=

>  <pIC50>
4.08

$$$$
>  <mol>
Cc1ccc(C2=CC(=O)c3ccccc3C2=O)cc1

>  <qual>
=

>  <pIC50>
4.44

$$$$
>  <mol>
COc1ccc(C2=CC(=O)c3ccccc3C2=O)c([N+](=O)[O-])c1

>  <qual>
=

>  <pIC50>
4.06

$$$$

* * *

- Test system: trypomastigote forms of Trypanosoma cruzi (Y strain)
- experiment.description: Trypanocidal assay, bloodstream trypomastigotes, 0% of blood at 37 °C
- Assay type: cell-based
- condition.summary: 24 h, concentration giving 50% lysis of the parasites, mean ± SD of at least three experiments

>  <mol>
O=C1C(c2ccccc2)=CC(=O)c2c(O)cccc21

>  <units.of.measure>
nM

>  <IC50>
340

$$$$
>  <mol>
O=C1C=C(c2ccccc2)C(=O)c2ccccc21

>  <units.of.measure>
nM

>  <IC50>
2110

$$$$
>  <mol>
Cc1ccc(C2=CC(=O)c3c(O)cccc3C2=O)cc1

>  <units.of.measure>
nM

>  <IC50>
310

$$$$
>  <mol>
O=C1C=C(c2ccccc2)C(=O)c2c(O)cccc21

>  <units.of.measure>
nM

>  <IC50>
690

$$$$
>  <mol>
COc1cccc(C2=CC(=O)c3ccccc3C2=O)c1

>  <units.of.measure>
nM

>  <IC50>
3850

$$$$
